experiment: Acute toxicity in breedless white mice, intraperitoneal
Format: in vivo
assaySetup: mouse, in vivo, ip; intraperitoneal administration to white mice
Below: a set of entries, each annotated with reported LD50.
valueKind: LD50 (mg/kg)

[
  {
    "compound": "COC(=O)C1=C(C)NC(C)=C(C(=O)OC)C1c1ccccc1SC(F)F [Proposed compound]",
    "dataValue": 93
  },
  {
    "compound": "CCOC(=O)C1=C(C)NC(C)=C(C(=O)OCC)C1c1ccccc1C(F)(F)F [SKF-24260, reference compound]",
    "dataValue": 38.5
  }
]
